Kindly find below pIC50 information for Chymotrypsinogen A (Bos taurus, UniProt P00766) taken from the literature.
pIC50: −log10 of the molar value.

>  <compound>
O=C(NCCNS(=O)(=O)c1ccc(-c2ccccn2)s1)C(=O)C(Cc1ccccc1)NC(=O)c1cc(C#Cc2ccccc2)nc2ccccc12 (stereo not shown)

>  <system>
Chymotrypsinogen A (Bos taurus, UniProt P00766)

>  <readout.relation>
=

>  <pIC50>
6.32

$$$$
>  <compound>
CC(C)C[C@@H]1NC(=O)[C@@H](NC(=O)OCc2ccccc2)Cc2ccc(cc2)OCCCCC[C@@H](CO)NC1=O

>  <system>
Chymotrypsinogen A (Bos taurus, UniProt P00766)

>  <readout.relation>
<

>  <pIC50>
4.30

$$$$
>  <compound>
Cc1ccc(NC(=S)Nc2cccc(Cl)c2)cc1

>  <system>
Chymotrypsinogen A (Bos taurus, UniProt P00766)

>  <readout.relation>
=

>  <pIC50>
4.34

$$$$
>  <compound>
Fc1ccc(NC(=S)Nc2cccc(Cl)c2)cc1F

>  <system>
Chymotrypsinogen A (Bos taurus, UniProt P00766)

>  <readout.relation>
=

>  <pIC50>
4.17

$$$$
>  <compound>
S=C(Nc1ccccc1)Nc1cccc(Br)c1

>  <system>
Chymotrypsinogen A (Bos taurus, UniProt P00766)

>  <readout.relation>
=

>  <pIC50>
4.10

$$$$
>  <compound>
O=C(NCCNS(=O)(=O)c1ccccc1)C(=O)[C@H](Cc1ccccc1)NC(=O)c1cc(C#Cc2ccccc2)nc2ccccc12

>  <system>
Chymotrypsinogen A (Bos taurus, UniProt P00766)

>  <readout.relation>
=

>  <pIC50>
7.18

$$$$
>  <compound>
S=C(Nc1cccc(Cl)c1)Nc1cccc(Cl)c1

>  <system>
Chymotrypsinogen A (Bos taurus, UniProt P00766)

>  <readout.relation>
=

>  <pIC50>
4.63

$$$$
